// provenance: patent US20160304858A1

- System Name: HIV broadly neutralizing antibody 2G12
- Experiment Notes: radiolabelled glycopeptide with 2G12 in solution, protein G bead capture, scintillation counting
Primed or numbered codes have the meaning given here. Where no end group is shown, it is not given here. [ ]: non-standard residue; d: D form. The star is where a group is joined. Hpra′ = its azide, alkyne or alkene has reacted where a group follows in round brackets; Man9(3) = Man9-azide click-glycosylated onto Hpg; For = O=C*

Binder | Fmax / %
For-[Hpra′](Man9(3))PNCITQQDVR[Hpra′](Man9(3))TSIPYTYTWPGSGSLGHHHHHHRDYKDDDDK [glycopeptide 10F3-Δ11] | 32
glycopeptide 10F3 (Fixed library, round 10) (peptide) peptide: For-[Hpra′](Man9(3))DTLHLKQIGG[Hpra′](Man9(3))PNCITQQDVR[Hpra′](Man9(3))TSIPYTYTWPGSGSLGHHHHHHRDYKDDDDK | 100
glycopeptide 10V9 (Variable library, round 10) (peptide) peptide: For-[Hpra′](Man9(3))TSIPYTYLNRSLWTNYRVNSWS[Hpra′](Man9(3))SKNVNV[Hpra′](Man9(3))PLGSGSLGHHHHHHRDYKDDDDK | 85
glycopeptide 10F6 (Fixed library, round 10) (peptide) peptide: For-[Hpra′](Man9(3))L[Hpra′](Man9(3))FIRIYPTR[Hpra′](Man9(3))QYVYHAPLLT[Hpra′](Man9(3))VR[Hpra′](Man9(3))SPTGPLIGSGSLGHHHHHHRDYKDDDDK | 87
